Target: T1, solubilized human INSR (B isoform) from CHO-hINSR-B cells, without insulin (human, UniProt P06213 28-1382)
T1 construct: mature; Detergent-solubilized full-length receptor in cell lysate, captured on the SPR chip by its carboxy-terminal part; also called solubilized INSR
Assay: SPR (ProteOn XPR36), solubilized INSR-B captured by CT-3 mAb, Fab injected, -insulin
parameter: Kd (nM)
Give the value in nM but do not write nM after it.

Please look up its Kd: XPA.15.247.2.014 Fab (Fab, V domains shown, Fab; also called XPA.15.247.014) VH: EVQLVETGGGVVQPGRSLRLSCAASGFTFSSYAMHWVRQAPGKGLEWVAVISYSGSNKYYADSVKGRFTISRDNSKNTLYLQMNSLRAEDTAVYYCARHEWGFGFDYWGQGTTVTVSS VL: DVVMTQSPLSLPVTLGQPASISCRSSQSLVYGDGNTYLNWFQQRPGQSPRRLIYKVSKRDSGVPDRFSGSGSGTDFTLKISRVEAEDVGVYYCMQGTYWPMTFGGGTKLEIKR
3.7

Input XPA.15.247.2.018 Fab (Fab, V domains shown, Monomeric Fab; also called XPA.247.2.018) VH: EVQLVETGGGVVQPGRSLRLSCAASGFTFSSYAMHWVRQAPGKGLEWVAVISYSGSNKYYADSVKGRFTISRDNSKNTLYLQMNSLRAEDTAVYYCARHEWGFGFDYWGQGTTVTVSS VL: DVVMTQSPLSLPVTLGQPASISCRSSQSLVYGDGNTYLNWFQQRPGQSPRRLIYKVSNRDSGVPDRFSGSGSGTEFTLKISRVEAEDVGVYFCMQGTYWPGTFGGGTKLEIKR
6.9

// next record XPA.15.247 Fab (Fab, V domains shown, Monomeric Fab; also called Fab247; XPA.15.247 parent Fab) VH: EVQLVETGGGVVQPGRSLRLSCAASGFTFSSYAMHWVRQAPGKGLEWVAVISYDGSNKYYADSVKGRFTISRDNSKNTLYLQMNSLRAEDTAVYYCARHEWGFGMDVWGQGTTVTVSS VL: DVVMTQSPLSLSVTLGQPASISCRSSLSLVYGDENTYLNWFQQRPGQSPRRLLYKVSDRDSGVPDRFSGSGSGTDFTLKISRVEADDVGVYYCMQGTHWPYTFGQGTKLEIKR
56
